// reported pKi for each item listed
Target: UniProt:Q13258
Test: Receptor binding assay, [3H]-PGD2, platelet membrane
pKi: −log10 of the molar value.
testReadout: pKi

INSERT INTO measurements (smilesnotation, assayedsystem, testreadout, reported) VALUES
  ('CC(C)Oc1ccc(S(=O)(=O)N2CCC(n3cc(C(=O)O)c4ccccc43)CC2)cc1', 'UniProt:Q13258', 'pKi', 8.85),
  ('CC(C)Oc1ccc(S(=O)(=O)N2CCC(n3cc(CC(=O)O)c4cc(Cl)ccc43)CC2)cc1', 'UniProt:Q13258', 'pKi', 7.66);

----------
Target: DP receptor (Homo sapiens (Human))
Sequence (Q13258 whole entry): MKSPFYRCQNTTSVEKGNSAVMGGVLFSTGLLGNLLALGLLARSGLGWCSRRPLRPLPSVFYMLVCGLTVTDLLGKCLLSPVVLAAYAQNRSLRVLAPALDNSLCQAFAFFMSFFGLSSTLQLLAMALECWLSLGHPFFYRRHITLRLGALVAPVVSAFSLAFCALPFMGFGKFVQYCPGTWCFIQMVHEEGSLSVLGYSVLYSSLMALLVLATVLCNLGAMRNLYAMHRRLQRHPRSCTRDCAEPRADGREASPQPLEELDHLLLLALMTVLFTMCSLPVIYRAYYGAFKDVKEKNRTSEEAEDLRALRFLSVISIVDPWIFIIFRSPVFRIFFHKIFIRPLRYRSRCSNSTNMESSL
Test: cAMP assay with washed platelets (DP inhibitory activity in vitro)
Settings: 100 nM of PGD2, cAMP by HTRF, read-out: IC50 (50% DP-inhibitory concentration in the cAMP assay)
pIC50: −log10 of the molar value.
// values below are reported pIC50
testReadout: pIC50

INSERT INTO measurements (compound, testreadout, reported) VALUES
  ('CC(C)Oc1ccc(S(=O)(=O)N2CCC(n3cc(CC(=O)O)c4ccccc43)CC2)cc1 [Compound I-1]', 'pIC50', 8.33),
  ('CC(C)Oc1ccc(S(=O)(=O)N2CCC(n3cc(CC(=O)O)c4cc(Cl)ccc43)CC2)cc1 [Compound I-5]', 'pIC50', 8.39),
  ('CC(C)Oc1ccc(S(=O)(=O)N2CC[C@@H](n3cc(C(=O)O)c4ccc(Cl)cc43)C2)cc1 [Compound I-32]', 'pIC50', 8.15),
  ('CC(C)Oc1ccc(S(=O)(=O)N2CC[C@@H](n3cc(CC(=O)O)c4ccc(F)cc43)C2)cc1 [Compound I-31]', 'pIC50', 8.54),
  ('CC(C)Oc1ccc(S(=O)(=O)N2CCC(n3cc(CC(=O)O)c4cc(F)ccc43)CC2)cc1 [Compound I-14]', 'pIC50', 8.66),
  ('CC(C)Oc1ccc(S(=O)(=O)N2CCC(n3cc(CC(=O)O)c4cc(Cl)ccc43)C2)cc1 (centres unmarked) [Compound I-7]', 'pIC50', 8.74),
  ('CC(C)Oc1ccc(S(=O)(=O)N2CC[C@@H](n3cc(CC(=O)O)c4ccccc43)C2)cc1 [Compound I-20]', 'pIC50', 8.42),
  ('CC(C)Oc1ccc(S(=O)(=O)N2CCC(n3cc(C(=O)O)c4ccccc43)CC2)cc1 [Compound I-23]', 'pIC50', 8.80),
  ('CC(C)Oc1ccc(S(=O)(=O)N2CCC(n3cc(CC(=O)O)c4ccc(Cl)cc43)CC2)cc1 [Compound I-9]', 'pIC50', 8.70),
  ('CC(C)Oc1ccc(S(=O)(=O)N2CCC(n3cc(CC(=O)O)c4ccc(F)cc43)CC2)cc1 [Compound I-16]', 'pIC50', 8.89),
  ('CCOc1ccc(S(=O)(=O)N2CCC(n3cc(CC(=O)O)c4ccc(Cl)cc43)C2)cc1 (centres unmarked) [Compound I-12]', 'pIC50', 8.16),
  ('CC(C)Oc1ccc(S(=O)(=O)N2CCC(n3cc(CC(=O)O)c4ccc(Cl)cc43)C2)cc1 (centres unmarked) [Compound I-11]', 'pIC50', 8.31),
  ('CCOc1ccc(S(=O)(=O)N2CCC(n3cc(CC(=O)O)c4ccc(Cl)cc43)CC2)cc1 [Compound I-10]', 'pIC50', 8.16),
  ('CC(C)Oc1ccc(S(=O)(=O)N2CC[C@@H](n3cc(CC(=O)O)c4ccc(Cl)cc43)C2)cc1 [Compound I-30]', 'pIC50', 8.92),
  ('CCOc1ccc(S(=O)(=O)N2CCC(n3cc(CC(=O)O)c4cc(Cl)ccc43)C2)cc1 (centres unmarked) [Compound I-8]', 'pIC50', 8.31),
  ('CC(C)Oc1ccc(S(=O)(=O)N2CC[C@H](n3nc(CC(=O)O)c4cc(Cl)ccc43)C2)cc1 [Compound I-21]', 'pIC50', 8.52),
  ('CCOc1ccc(S(=O)(=O)N2CCC(n3cc(CC(=O)O)c4cc(Cl)ccc43)CC2)cc1 [Compound I-6]', 'pIC50', 8.32);

Where do these numbers come from? They come from patent US8623903B2.
